- system_name: recombinant human integrin αVβ6 (Homo sapiens (Human), UniProt P06756+P18564)
- Sequence (P06756 31-992): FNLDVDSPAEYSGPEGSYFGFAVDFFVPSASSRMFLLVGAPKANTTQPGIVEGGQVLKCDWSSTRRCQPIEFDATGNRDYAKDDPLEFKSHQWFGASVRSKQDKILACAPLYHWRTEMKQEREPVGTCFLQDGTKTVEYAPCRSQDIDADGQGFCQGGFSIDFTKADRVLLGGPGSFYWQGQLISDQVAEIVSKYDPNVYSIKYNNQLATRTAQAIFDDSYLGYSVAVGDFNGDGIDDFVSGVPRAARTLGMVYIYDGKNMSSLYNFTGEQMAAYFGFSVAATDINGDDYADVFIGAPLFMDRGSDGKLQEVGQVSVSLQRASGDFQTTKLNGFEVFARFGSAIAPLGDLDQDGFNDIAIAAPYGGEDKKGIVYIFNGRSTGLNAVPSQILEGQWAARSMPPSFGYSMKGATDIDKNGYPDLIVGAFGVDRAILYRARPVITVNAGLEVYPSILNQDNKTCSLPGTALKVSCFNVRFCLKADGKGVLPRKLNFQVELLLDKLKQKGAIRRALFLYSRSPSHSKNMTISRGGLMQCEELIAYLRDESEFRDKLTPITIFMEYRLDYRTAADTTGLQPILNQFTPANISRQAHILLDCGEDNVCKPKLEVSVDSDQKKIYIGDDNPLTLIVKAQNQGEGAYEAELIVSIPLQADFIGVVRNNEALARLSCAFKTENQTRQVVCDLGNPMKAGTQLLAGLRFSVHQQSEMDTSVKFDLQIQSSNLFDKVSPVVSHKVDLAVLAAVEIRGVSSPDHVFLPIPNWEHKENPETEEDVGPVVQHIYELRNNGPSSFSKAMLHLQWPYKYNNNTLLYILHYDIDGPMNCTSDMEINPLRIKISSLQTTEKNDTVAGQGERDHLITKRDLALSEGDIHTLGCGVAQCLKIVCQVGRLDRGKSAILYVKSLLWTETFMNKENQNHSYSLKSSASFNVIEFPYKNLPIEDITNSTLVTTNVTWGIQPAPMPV
- Sequence (P18564 22-707): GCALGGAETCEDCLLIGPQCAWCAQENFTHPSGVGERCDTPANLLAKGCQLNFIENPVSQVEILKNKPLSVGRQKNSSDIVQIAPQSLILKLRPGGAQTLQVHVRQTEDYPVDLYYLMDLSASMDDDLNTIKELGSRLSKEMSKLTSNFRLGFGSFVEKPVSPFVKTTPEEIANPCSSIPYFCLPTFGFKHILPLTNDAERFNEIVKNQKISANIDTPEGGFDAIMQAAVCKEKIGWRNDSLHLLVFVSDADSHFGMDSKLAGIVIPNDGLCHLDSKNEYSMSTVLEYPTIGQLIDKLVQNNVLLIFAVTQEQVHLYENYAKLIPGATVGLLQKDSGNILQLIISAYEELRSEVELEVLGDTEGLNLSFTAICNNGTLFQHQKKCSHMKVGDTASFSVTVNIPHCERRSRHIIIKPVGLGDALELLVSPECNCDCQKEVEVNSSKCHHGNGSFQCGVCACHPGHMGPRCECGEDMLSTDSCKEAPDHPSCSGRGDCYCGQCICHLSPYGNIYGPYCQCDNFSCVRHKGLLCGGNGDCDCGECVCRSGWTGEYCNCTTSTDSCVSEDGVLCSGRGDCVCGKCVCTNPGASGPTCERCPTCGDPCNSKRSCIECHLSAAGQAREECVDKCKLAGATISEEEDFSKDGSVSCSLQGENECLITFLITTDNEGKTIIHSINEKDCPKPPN
- test_summary: Solid phase integrin αVβ6 binding assay
- measurement_setup: inhibition of recombinant TGFβ1 LAP binding to coated integrin, IC50 presented in four ranges, read-out: αvβ6 Inhibition IC50 (nM) - range
Here, each record is paired with measured IC50 data.

Query: Report measured IC50 on recombinant human integrin αVβ6 (Homo sapiens (Human), UniProt P06756+P18564); entry: CO[C@H](C)CN(CCCCc1ccc2c(n1)NCCC2)CC[C@H](Nc1ccnc(C(F)(F)F)n1)C(=O)O [Compound 72]
Reply: < 50 nM

Query: Under recombinant human integrin αVβ6 (Homo sapiens (Human), UniProt P06756+P18564): report IC50 of O=C(O)[C@H](CCN(CCCCc1ccc2c(n1)NCCC2)CCOc1ccccn1)Nc1ncnc2c(Cl)cccc12 [Compound 48] .
Reply: < 50 nM

Query: Output reported IC50 of the compound COCCN(CCCCc1ccc2c(n1)NCCC2)CC[C@H](Nc1ncnc2cc(F)c(F)cc12)C(=O)O [Compound 21] on recombinant human integrin αVβ6 (Homo sapiens (Human), UniProt P06756+P18564).
Reply: < 50 nM

Query: Enter measured IC50, system recombinant human integrin αVβ6 (Homo sapiens (Human), UniProt P06756+P18564), for the compound shown: N#Cc1cnc(N[C@@H](CCN(CCCCc2ccc3c(n2)NCCC3)CCOc2ccc(F)cc2)C(=O)O)nc1 [Compound 138]
Reply: < 50 nM

Query: Fill in IC50 for COC[C@@H](F)CN(CCCCc1ccc2c(n1)NCCC2)CC[C@H](Nc1ncnc2c1cnn2C)C(=O)O [Compound 105] tested with recombinant human integrin αVβ6 (Homo sapiens (Human), UniProt P06756+P18564).
Reply: < 50 nM

Query: // output IC50; input CN(C)C(=O)CN(CCCCc1ccc2c(n1)NCCC2)CC[C@H](Nc1ncnc2ccccc12)C(=O)O [Compound 64] ; system recombinant human integrin αVβ6 (Homo sapiens (Human), UniProt P06756+P18564)
Reply: < 50 nM

Query: Give IC50; test system recombinant human integrin αVβ6 (Homo sapiens (Human), UniProt P06756+P18564); compound COCCN(CCCCc1ccc2c(n1)NCCC2)CC[C@H](Nc1ncnc2cccc(F)c12)C(=O)O [Compound 18]
Reply: < 50 nM

Query: Report IC50 from recombinant human integrin αVβ6 (Homo sapiens (Human), UniProt P06756+P18564) testing of Cc1ncccc1OCCN(CCCCc1ccc2c(n1)NCCC2)CC[C@H](Nc1ncnc2ccccc12)C(=O)O [Compound 52]
Reply: < 50 nM

Query: Name the recorded IC50 of O=C(O)[C@H](CCN(CCCCc1ccc2c(n1)NCCC2)CCOc1ccccn1)Nc1ncnc2ccccc12 [Compound 49] , assay system recombinant human integrin αVβ6 (Homo sapiens (Human), UniProt P06756+P18564).
Reply: < 50 nM

Query: State IC50 (recombinant human integrin αVβ6 (Homo sapiens (Human), UniProt P06756+P18564)) of O=C(O)[C@H](CCN(CCCCc1ccc2c(n1)NCCC2)CCOC(F)F)Nc1ncnc2ccccc12 [Compound 35] .
Reply: < 50 nM

Query: Param request: IC50 | system recombinant human integrin αVβ6 (Homo sapiens (Human), UniProt P06756+P18564) | item COc1cccc2c(N[C@@H](CCN(CCCF)CCCCc3ccc4c(n3)NCCC4)C(=O)O)ncnc12 [Compound 43]
Reply: < 50 nM

Query: Provide IC50, recorded with recombinant human integrin αVβ6 (Homo sapiens (Human), UniProt P06756+P18564), of COCCN(CCCCc1ccc2c(n1)NCCC2)CC[C@H](Nc1ncnc2c(Cl)cccc12)C(=O)O [Compound 38]
Reply: < 50 nM

Query: Provide the reported IC50 (system: recombinant human integrin αVβ6 (Homo sapiens (Human), UniProt P06756+P18564)) for COC[C@@H](F)CN(CCCCc1ccc2c(n1)NCCC2)CC[C@H](Nc1ncc(C(F)(F)F)cn1)C(=O)O [Compound 85]
Reply: 250 to 1000 nM

Query: Please report the measured IC50 for CCOCCN(CCCCc1ccc2c(n1)NCCC2)CC[C@H](Nc1ncnc2ccccc12)C(=O)O [Compound 55] tested on recombinant human integrin αVβ6 (Homo sapiens (Human), UniProt P06756+P18564).
Reply: < 50 nM

Query: Write down the reported IC50 (system: recombinant human integrin αVβ6 (Homo sapiens (Human), UniProt P06756+P18564)) of COCCN(CCCCc1ccc2c(n1)NCCC2)CC[C@H](Nc1ncnc2ccccc12)C(=O)O [Compound 5]
Reply: < 50 nM

Query: State measured IC50 of the compound COCCN(CCCCc1ccc2c(n1)NCCC2)CC[C@H](Nc1cc(C(F)F)ncn1)C(=O)O [Compound 23] with recombinant human integrin αVβ6 (Homo sapiens (Human), UniProt P06756+P18564).
Reply: < 50 nM
